molecular target: NF-kB p50 homodimer (Homo sapiens, UniProt P19838 1-433); assay: bimolecular dsDNA microarray; Bimolecular dsDNA microarray on aldehyde glass; probes annealed in 10 mM Tris-HCl pH 8.0, 100 mM NaCl, 1 mM EDTA; binding buffer and temperature as in ref 16, not stated; high values mean tight binding; details: protein: commercial; tags: Cy3-labeled for microarray; chain copies: 2; label: 5' amino linker to the slide; dsDNA, one strand shown
Sequence (P19838 1-433): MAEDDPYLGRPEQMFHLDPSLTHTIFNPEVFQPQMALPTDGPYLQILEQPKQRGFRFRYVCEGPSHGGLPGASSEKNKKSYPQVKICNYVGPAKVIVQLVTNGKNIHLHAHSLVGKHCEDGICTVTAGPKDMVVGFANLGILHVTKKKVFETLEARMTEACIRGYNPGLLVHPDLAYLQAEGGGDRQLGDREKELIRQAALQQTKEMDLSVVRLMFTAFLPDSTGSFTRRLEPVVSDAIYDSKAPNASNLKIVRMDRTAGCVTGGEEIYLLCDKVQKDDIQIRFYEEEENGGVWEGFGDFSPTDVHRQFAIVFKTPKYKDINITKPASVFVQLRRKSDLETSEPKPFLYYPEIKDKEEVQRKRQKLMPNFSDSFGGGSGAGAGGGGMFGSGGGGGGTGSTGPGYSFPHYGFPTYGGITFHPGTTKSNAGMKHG
For each record, write down the corresponding binding signal.

Sequence Record | System | Result
GGGCCTTTCC | NF-kB p50 homodimer (Homo sapiens, UniProt P19838 1-433) | 20.5 a.u.
GTGACTTTCC | NF-kB p50 homodimer (Homo sapiens, UniProt P19838 1-433) | 20.4 a.u.
GGAACTTTCC | NF-kB p50 homodimer (Homo sapiens, UniProt P19838 1-433) | 31.4 a.u.
GGGAATTTCC | NF-kB p50 homodimer (Homo sapiens, UniProt P19838 1-433) | 57.5 a.u.
GGGTCTTTCC | NF-kB p50 homodimer (Homo sapiens, UniProt P19838 1-433) | 28.6 a.u.
GGGACTTTTC | NF-kB p50 homodimer (Homo sapiens, UniProt P19838 1-433) | 29.6 a.u.
CGGACTTTCC | NF-kB p50 homodimer (Homo sapiens, UniProt P19838 1-433) | 19.8 a.u.
GGGACTTACC | NF-kB p50 homodimer (Homo sapiens, UniProt P19838 1-433) | 25.4 a.u.

Please look at the items below and tell me binding signal for each one, in order.
1. GGGACTTGCC
2. GGCACTTTCC

18.8 a.u.
19.2 a.u.

---

molecular target: NF-kB p50 homodimer (Homo sapiens, UniProt P19838 1-433); test: bimolecular dsDNA microarray; Bimolecular dsDNA microarray on aldehyde glass; probes annealed in 10 mM Tris-HCl pH 8.0, 100 mM NaCl, 1 mM EDTA; binding buffer and temperature as in ref 16, not stated; high values mean tight binding; settings: protein: commercial; tags: Cy3-labeled for microarray; chain copies: 2; label: 5' amino linker to the slide; dsDNA, one strand shown
Recorded Metric: binding signal
Please answer in the form of a number followed by its unit of measurement.

Sequence Record | binding signal
GGGACTCTCC | 24.8 a.u.
AGGACTTTCC | 21.1 a.u.
GGGACTATCC | 20 a.u.
GGGAGTTTCC | 55.8 a.u.
GCGACTTTCC | 12.5 a.u.
GGGACTTTCT | 20.2 a.u.
GGGACCTTCC | 19.8 a.u.

// next entry
binding signal reported for this sequence `GGGACGTTCC` : 25 a.u.
